Reference for the values: the supplement of paper PMC10567573

B1: GFOD1 (parent)
chain: SDDFCTFQMVLEGGVCCTVTLNFN

variants of: B1; experiment: protein stability index of a GFP-peptide fusion (GPS, HEK-293T) (PSI 1-6); higher = more stable; conditions: c terminus: a fixed tail appended;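 note: lentivirally expressed fusions sorted by FACS into six bins by GFP to DsRed ratio, PSI derived from sequencing read proportions per bin multiplied by bin number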
parameter: protein stability index

Would you please look over these solved cases?
SDDFCTFQMVLEGGVCCTVTLNFP 3
SDDFCTFQMVLEGGVHCTVTLNFN 3.09
SDDFCTFQMVLEGEVCCTVTLNFN 2.08
SDDFCIFQMVLEGGVCCTVTLNFN 2.48
SDDQCTFQMVLEGGVCCTVTLNFN 2.56

-- ask What value of measured protein stability index is listed for SDDFCTFQMSLEGGVCCTVTLNFN ?
-- reply 2.04

-- ask Would you mind doing SDDFCKFQMVLEGGVCCTVTLNFN as well?
-- reply 2.04

-- ask Would you mind doing SDDFCTFQMVLEGGVCCHVTLNFN as well?
-- reply 2.14

-- ask Would you mind doing SDDNCTFQMVLEGGVCCTVTLNFN as well?
-- reply 3.13

-- ask Would you mind doing SDDFCTFQMVLEGGVCCTFTLNFN as well?
-- reply 2.73
